- Test system: CD8F1 mice, subcutaneous mammary adenocarcinoma, T/C%
- ASSAY_INFO: NCI In Vivo Anticancer Drug Screen. Data for tumor model Mammary Adenocarcinoma CD8F1 (subcutaneous) in CD8F1
- MEASUREMENT_CONTEXT: endpoint: mean tumor weight; dose: 200.0 mg/kg/injection; schedule: Q07DX007 (ip); vehicle: saline; higher = larger tumour
Results filed as inconclusive are left out.
Field: T/C. Provide a value for each of the compounds that follow.

Below are worked cases with known answers.
COMPOUND_SMILES	STUDY_TARGET	T/C
C#CC[N+]12CN3CN(CN(C3)C1)C2	CD8F1 mice, subcutaneous mammary adenocarcinoma, T/C%	97 % of control
Cc1cc(O)c(N=Nc2ccc(C(=O)O)cc2)cc1C	CD8F1 mice, subcutaneous mammary adenocarcinoma, T/C%	20 % of control
CC[As](=O)(O)CC	CD8F1 mice, subcutaneous mammary adenocarcinoma, T/C%	53 % of control

Let us move to another entry and its T/C.
Challenge: Entry CC/C(=C(\c1ccccc1)c1ccc(OCCN(C)C)cc1)c1ccccc1 : reported T/C = ?
Response given: 15 % of control
